Molecular target: rat brain monoamine oxidase-A (Rattus norvegicus, UniProt P21396)
Construct: incubated in appropriately diluted homogenates of rat brain or liver; from tissue; host or cells: rat brain or liver homogenate
Sequence (P21396 whole entry): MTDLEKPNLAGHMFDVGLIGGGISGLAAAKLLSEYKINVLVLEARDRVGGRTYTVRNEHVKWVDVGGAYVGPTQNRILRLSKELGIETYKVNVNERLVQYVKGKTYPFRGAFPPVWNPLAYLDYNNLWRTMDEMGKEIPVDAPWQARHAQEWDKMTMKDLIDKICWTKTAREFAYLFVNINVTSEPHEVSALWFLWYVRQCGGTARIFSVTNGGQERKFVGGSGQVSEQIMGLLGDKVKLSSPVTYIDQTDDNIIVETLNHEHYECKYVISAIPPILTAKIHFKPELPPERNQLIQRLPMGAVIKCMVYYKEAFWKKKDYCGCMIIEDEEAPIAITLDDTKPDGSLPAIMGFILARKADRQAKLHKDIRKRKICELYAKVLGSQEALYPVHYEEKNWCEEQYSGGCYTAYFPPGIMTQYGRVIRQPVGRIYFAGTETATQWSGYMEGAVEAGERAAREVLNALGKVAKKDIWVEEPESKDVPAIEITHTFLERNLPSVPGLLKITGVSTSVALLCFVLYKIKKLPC
Assay: Monoamine oxidase-A-inhibiting activity in vitro (radiochemical, 5-hydroxytryptamine substrate)
Format: biochemical
pIC50: −log10 of the molar value.
# maps each entry to its pIC50
PROPERTY_NAME: pIC50

SAMPLE_SMILES: C#CCNC(C)(C)Cc1ccccc1
SYSTEM_NAME: rat brain monoamine oxidase-A (Rattus norvegicus, UniProt P21396)
PROPERTY_NAME: pIC50
READING: 4.28
//
SAMPLE_SMILES: C#CCNC(C)(C)Cc1ccc(Cl)cc1
SYSTEM_NAME: rat brain monoamine oxidase-A (Rattus norvegicus, UniProt P21396)
PROPERTY_NAME: pIC50
READING: 3.80

====

Molecular target: rat brain monoamine oxidase-A (Rattus norvegicus, UniProt P21396)
Construct: incubated in appropriately diluted homogenates of rat brain or liver; from tissue; host or cells: rat brain or liver homogenate
Assay: Monoamine oxidase-A-inhibiting activity in vitro (radiochemical, 5-hydroxytryptamine substrate)
Type: biochemical
Conditions: in vitro, rat brain homogenate; read-out: IC50 for inhibition of monoamine oxidase A
pIC50: −log10 of the molar value.

MOLECULE: NNCCc1ccccc1 [phenelzine.H2SO4, phenelzine, reference compound]
pIC50: 3.89
